Data origin: patent US20250263490A1

target: T1, recombinant human domain 1-3His6 of the cation-independent mannose-6-phosphate receptor (human, UniProt P11717 41-467); assay: BLI exp 1, dissoc pH 7.4
T1 construct: Biotinylated (NHS-PEG4-biotin) for BLI; Glycosylated; also called hDom1-3His6; hCI-M6PRD1-D3
quantity kind: Kd (nM)

Check out these entries, answers already filled in.
Query block: Entry anti-CI-M6PR VHH1 (VHH, His6-tagged; made in Pichia pastoris, later also in E. coli WK6) VHH: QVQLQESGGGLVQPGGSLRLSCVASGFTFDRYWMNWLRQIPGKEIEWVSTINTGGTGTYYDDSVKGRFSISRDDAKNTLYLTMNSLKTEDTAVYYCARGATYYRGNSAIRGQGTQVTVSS has what Kd?
Result block: 7.44

Query block: Entry anti-CI-M6PR VHH11 (VHH, His6-tagged; made in Pichia pastoris) VHH: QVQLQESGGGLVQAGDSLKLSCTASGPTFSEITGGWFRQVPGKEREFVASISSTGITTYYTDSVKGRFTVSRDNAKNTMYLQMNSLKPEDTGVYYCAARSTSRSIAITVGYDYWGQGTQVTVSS has what Kd?
Result block: 41.4

Query block: Entry anti-CI-M6PR VHH2 (VHH, His6-tagged; made in Pichia pastoris) VHH: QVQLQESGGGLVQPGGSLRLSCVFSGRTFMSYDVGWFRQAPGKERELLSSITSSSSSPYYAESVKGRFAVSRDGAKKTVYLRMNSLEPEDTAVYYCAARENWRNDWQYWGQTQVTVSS has what Kd?
Result block: 5.3

(P) anti-CI-M6PR VHH10 (VHH, His6-tagged; made in Pichia pastoris) VHH: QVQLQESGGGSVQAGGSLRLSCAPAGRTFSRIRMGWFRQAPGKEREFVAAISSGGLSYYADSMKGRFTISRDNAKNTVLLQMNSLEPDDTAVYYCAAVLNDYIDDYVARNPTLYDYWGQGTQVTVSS
(Q) anti-CI-M6PR VHH7 (VHH, His6-tagged (Pichia pastoris)) VHH: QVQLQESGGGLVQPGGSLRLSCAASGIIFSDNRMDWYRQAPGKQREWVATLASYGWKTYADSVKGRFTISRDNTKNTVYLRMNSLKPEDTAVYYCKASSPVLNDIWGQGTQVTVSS
Query block: Of the two listed items, which has the higher Kd? First: P Second: Q Kindly give the label for the entry you pick.
Result block: P
